Documented pIC50 across a set of compounds
# targetOfAssay: recombinant human CB1 receptor (Homo sapiens, UniProt P21554)
# Construct: expressed in transfected cells; host or cells: CHO cells (membranes)
# Sequence (P21554 whole entry): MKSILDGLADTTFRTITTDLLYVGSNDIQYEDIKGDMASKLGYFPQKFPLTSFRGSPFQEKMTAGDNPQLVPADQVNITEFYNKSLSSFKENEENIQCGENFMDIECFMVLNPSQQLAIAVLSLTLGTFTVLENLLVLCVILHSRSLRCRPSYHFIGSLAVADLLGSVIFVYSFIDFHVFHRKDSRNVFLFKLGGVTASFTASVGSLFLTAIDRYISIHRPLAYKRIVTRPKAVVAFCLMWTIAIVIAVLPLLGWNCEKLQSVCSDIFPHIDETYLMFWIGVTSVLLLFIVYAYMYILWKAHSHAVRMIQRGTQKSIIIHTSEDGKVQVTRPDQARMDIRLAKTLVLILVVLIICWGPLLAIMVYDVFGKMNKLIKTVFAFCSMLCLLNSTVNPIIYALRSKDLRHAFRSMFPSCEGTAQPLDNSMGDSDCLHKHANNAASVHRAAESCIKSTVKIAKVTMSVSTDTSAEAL
# measurementNotes: Cannabinoid Receptor-1 (CB1) Binding Assay
# Procedure: Cannabinoid Receptor-1 (CB1) Binding Assay. Binding buffer contains 50 mM Tris-HCl, pH7.4, 2.5 mM EDTA, 5 mM MgCl2, 0.5 mg/ml fatty acid free bovine serum albumin and protease inhibitors (Cat#P8340, from Sigma). To initiate the binding reaction, 5 μl of radioligand solution is added, the mixture is incubated with gentle shaking on a shaker for 1.5 hours at 30° C. […] The bound radiolabel is quantitated using scintillation counter.
pIC50: −log10 of the molar value.

[
  {
    "compound": "Cc1ccc(-c2nc(C(=O)NC3CCCCC3)n(C)c2-c2ccc(C)cc2)cc1 [Compound 4]",
    "targetOfAssay": "recombinant human CB1 receptor (Homo sapiens, UniProt P21554)",
    "pIC50": "6.00 to 7.00"
  },
  {
    "compound": "Cn1c(C(=O)NC2CCCCC2)nc(-c2ccc(Cl)cc2Cl)c1-c1ccc(Cl)cc1 [Compound 5]",
    "targetOfAssay": "recombinant human CB1 receptor (Homo sapiens, UniProt P21554)",
    "pIC50": "> 8.00"
  }
]
